Biological target: Tripeptidyl-peptidase 2 (Rattus norvegicus, UniProt Q64560)
Sequence (Q64560 whole entry): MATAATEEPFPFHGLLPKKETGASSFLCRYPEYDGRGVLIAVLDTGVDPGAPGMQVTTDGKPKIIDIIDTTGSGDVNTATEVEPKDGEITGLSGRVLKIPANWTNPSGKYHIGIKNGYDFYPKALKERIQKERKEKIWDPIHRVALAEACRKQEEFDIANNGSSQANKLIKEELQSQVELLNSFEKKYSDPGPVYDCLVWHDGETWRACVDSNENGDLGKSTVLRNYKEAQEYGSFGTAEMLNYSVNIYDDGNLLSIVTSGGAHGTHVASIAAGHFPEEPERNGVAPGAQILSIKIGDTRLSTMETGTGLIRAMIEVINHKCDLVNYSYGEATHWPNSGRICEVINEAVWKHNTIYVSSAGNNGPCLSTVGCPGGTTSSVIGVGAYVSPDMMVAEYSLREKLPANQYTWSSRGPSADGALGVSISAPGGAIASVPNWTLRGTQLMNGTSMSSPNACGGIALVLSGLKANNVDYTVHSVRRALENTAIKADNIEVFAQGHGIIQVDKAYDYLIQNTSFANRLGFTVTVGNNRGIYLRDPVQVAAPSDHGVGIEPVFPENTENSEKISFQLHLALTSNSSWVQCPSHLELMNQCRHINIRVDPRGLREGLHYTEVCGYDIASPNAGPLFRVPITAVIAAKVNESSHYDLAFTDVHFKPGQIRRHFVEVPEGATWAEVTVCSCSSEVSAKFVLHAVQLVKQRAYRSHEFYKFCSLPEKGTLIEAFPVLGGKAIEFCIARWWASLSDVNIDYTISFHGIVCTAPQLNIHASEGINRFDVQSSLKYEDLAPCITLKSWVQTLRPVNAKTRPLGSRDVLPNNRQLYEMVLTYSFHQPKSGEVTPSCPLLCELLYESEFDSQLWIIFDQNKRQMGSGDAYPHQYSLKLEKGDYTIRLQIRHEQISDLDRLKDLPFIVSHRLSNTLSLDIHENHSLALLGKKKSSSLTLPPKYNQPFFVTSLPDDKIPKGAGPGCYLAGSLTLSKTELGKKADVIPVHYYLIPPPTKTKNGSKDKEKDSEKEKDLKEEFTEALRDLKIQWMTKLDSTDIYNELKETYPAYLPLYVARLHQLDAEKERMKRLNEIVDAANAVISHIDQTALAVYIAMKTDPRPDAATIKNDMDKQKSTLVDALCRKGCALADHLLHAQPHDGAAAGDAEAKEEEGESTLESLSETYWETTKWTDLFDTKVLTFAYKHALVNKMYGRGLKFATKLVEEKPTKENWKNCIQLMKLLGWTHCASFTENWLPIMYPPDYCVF
Where a SMILES comes first, the peptide text is derived from it. [ ]: non-standard residue; d: D form. The star is where a group is joined. 2Nal = N[C@@H](Cc1ccc2ccccc2c1)C(=O)O; Cha = N[C@@H](CC1CCCCC1)C(=O)O; Phg = N[C@H](C(=O)O)c1ccccc1; Nle = CCCC[C@H](N)C(=O)O; Nva = CCC[C@H](N)C(=O)O; Bn = c1ccc(C*)cc1; NHBu = CCCCN*
quantity: Ki (µM)

Answered examples (6):
{"columns": ["compound", "uom", "Ki"],
 "data": [
  ["CC(C)[C@H](N)C(=O)N[C@@H](CC1CCCCC1)C(=O)O (H-Val-[Cha]-OH)", "µM", 3000],
  ["CCC[C@H](NC(=O)[C@@H](N)C(C)C)C(=O)NC (H-Val-[Nva]-NHMe)", "µM", 28],
  ["CCCCNC(=O)[C@H](CC1CCCCC1)NC(=O)[C@@H](N)C(C)C (H-Val-[Cha]-NHBu)", "µM", 57],
  ["CNC(=O)[C@@H](NC(=O)[C@@H](N)C(C)C)c1ccccc1 (H-Val-[Phg]-NHMe)", "µM", 29],
  ["CC(C)[C@H](N)C(=O)N[C@H](C(=O)O)c1ccccc1 (H-Val-[Phg]-OH)", "µM", 600],
  ["CC(C)[C@H](N)C(=O)NC(CO)Cc1ccccc1 (some centres not stated)", "µM", 2100]
]}

[P] CCCC[C@H](NC(=O)[C@@H](N)C(C)C)C(=O)O (H-Val-[Nle]-OH)
[Q] CC(C)C(N)C(=O)NC(Cc1ccc(OCc2ccccc2)cc1)C(=O)O (configuration not stated) (H-Val-Tyr(Bn)-OH; configuration not given here)
[R] CC[C@H](C)[C@H](N)C(=O)N1CCC[C@H]1C(=O)N[C@H](C(=O)O)[C@@H](C)CC [DIPROTIN A]
[S] CC(N)C(=O)NC(C)C(=O)O (configuration not stated)
[T] CSCC[C@@H](NC(=O)[C@@H](N)C(C)C)C(=O)O
Problem: Task for the reader: rank each entry by its Ki, from the minimum upward. Give your ranking as a list of the labels in the requested order.
Solution: R, Q, P, T, S
(R: 1 µM, Q: 210 µM, P: 860 µM, T: 2000 µM, S: 5000 µM)

[I] CCCCNC(=O)[C@H](Cc1ccccc1)NC(=O)[C@@H](N)C(C)C (H-Val-Phe-NHBu)
[II] NCC(=O)NCC(=O)N[C@@H](Cc1ccccc1)C(=O)O (H-Gly-Gly-Phe-OH)
[III] CC(C)[C@H](N)C(=O)N[C@@H](Cc1ccc2ccccc2c1)C(=O)O (H-Val-[2Nal]-OH)
Problem: List these items ordered by Ki, big to small. Give your ranking as a list of the labels in the requested order.
Solution: II, III, I

[P] C[C@H](N)C(=O)N[C@@H](C)C(=O)N1CCC[C@H]1C(=O)N[C@@H](C)C(=O)O (H-AAPA-OH)
[Q] CCCCNC(=O)[C@H](CCCC)NC(=O)[C@@H](N)C(C)C (H-Val-[Nle]-NHBu)
Problem: When P and Q are compared, which has the higher number for Ki? Record your answer as the label of the chosen record.
Solution: P

[a] NCC(=O)N[C@@H](Cc1c[nH]c2ccccc12)C(=O)O (H-Gly-Trp-OH)
[b] CCCC[C@H](NC(=O)[C@@H](N)C(C)C)C(=O)NCCCc1ccccc1
Problem: Returns the identifier with the smallest measured Ki among a and b . Record your answer as the label of the chosen record.
Solution: b

[P] CC(C)[C@H](N)C(=O)N[C@H](C(=O)O)C(C)C [VAL-VAL] (H-Val-Val-OH)
[Q] C[C@H](N)C(=O)N1CCC[C@H]1C(=O)N[C@@H](C)C(=O)O (H-Ala-Pro-Ala-OH)
[R] CSCC[C@H](NC(=O)[C@H](Cc1c[nH]c2ccccc12)NC(=O)CN)C(=O)O (H-Gly-Trp-Met-OH)
Problem: Task for the reader: rank each entry by its Ki, from the minimum upward. Give your ranking as a list of the labels in the requested order.
Solution: Q, R, P

[I] CNC(=O)[C@H](Cc1ccccc1)NC(=O)[C@@H](N)C(C)C (H-Val-Phe-NHMe)
[II] CCCCNC(=O)[C@H](CCC)NC(=O)[C@@H](N)C(C)C (H-Val-[Nva]-NHBu)
[III] CC(C)[C@H](N)C(=O)NCc1ccccc1
Problem: Task for the reader: rank each entry by its Ki, from the minimum upward. Give your ranking as a list of the labels in the requested order.
Solution: II, I, III

[P] CNC(=O)[C@H](Cc1ccc(O)cc1)NC(=O)[C@@H](N)C(C)C (H-Val-Tyr-NHMe)
[Q] COC(=O)[C@H](Cc1ccccc1)NC(=O)[C@@H](N)C(C)C (H-Val-Phe-OMe)
[R] CSCC[C@H](NC(=O)[C@H](Cc1ccc(O)cc1)NC(=O)[C@@H](N)CC(=O)O)C(=O)O (H-Asp-Tyr-Met-OH)
[S] CCC[C@H](NC(=O)[C@@H](N)C(C)C)C(=O)O (H-Val-[Nva]-OH)
[T] CC(C)[C@H](N)C(=O)NCCCCc1ccccc1
Problem: Task for the reader: rank each entry by its Ki, from the minimum upward. Give your ranking as a list of the labels in the requested order.
Solution: P, T, R, Q, S

[A] CCCC[C@H](NC(=O)[C@@H](N)CCCC)C(=O)NC
[B] CCC[C@H](NC(=O)[C@@H](N)CCC)C(=O)O (H-[Nva]-[Nva]-OH)
Problem: Returns the identifier with the smallest measured Ki among A and B . Record your answer as the label of the chosen record.
Solution: A

* * *

pKi: −log10 of the molar value. Where a SMILES comes first, the peptide text is derived from it. [ ]: non-standard residue; d: D form. hPhe = N[C@@H](CCc1ccccc1)C(=O)O; Nle = CCCC[C@H](N)C(=O)O
These records show pKi for Tripeptidyl-peptidase 2 (Rattus norvegicus).
quantity: pKi

{"columns": ["compound", "obs_value"],
 "data": [
  ["CC(C)[C@H](N)C(=O)N[C@@H](CCc1ccccc1)C(=O)O (H-Val-[hPhe]-OH)", 3.24]
]}

[a] NCC(=O)N[C@@H](Cc1ccccc1)C(=O)O (H-Gly-Phe-OH)
[b] CCCC[C@H](NC(=O)[C@@H](N)C(C)C)C(=O)NC (H-Val-[Nle]-NHMe)
[c] C[C@H](N)C(=O)N1CCC[C@H]1C(=O)O (H-Ala-Pro-OH)
Problem: List these items ordered by pKi, big to small. Give your ranking as a list of the labels in the requested order.
Solution: b, a, c
(b: 4.18, a: 3.33, c: 2.85)

* * *

These records show pKi for Tripeptidyl-peptidase 2 (Rattus norvegicus, UniProt Q64560).
pKi: −log10 of the molar value. Where a SMILES comes first, the peptide text is derived from it.
quantity: pKi

{"columns": ["compound", "tgt", "quantity", "obs_value"],
 "data": [
  ["CC(C)[C@H](N)C(=O)NCCCc1ccccc1", "Tripeptidyl-peptidase 2 (Rattus norvegicus, UniProt Q64560)", "pKi", 4.07]
]}

[1] CC(C)[C@H](NC(=O)CN)C(=O)N[C@@H](Cc1ccccc1)C(=O)O (H-Gly-Val-Phe-OH)
[2] CC(C)[C@H](N)C(=O)NCCc1ccccc1
[3] CNC(=O)[C@@H](NC(=O)[C@@H](N)C(C)C)C(C)C (H-Val-Val-NHMe)
Problem: List these items ordered by pKi, big to small. Give your ranking as a list of the labels in the requested order.
Solution: 1, 3, 2

[a] CC(C)[C@H](N)C(=O)N[C@@H](Cc1ccc(O)cc1)C(=O)O (H-Val-Tyr-OH)
[b] CCCC[C@H](NC(=O)[C@@H](N)CCCC)C(=O)O
Problem: When a and b are compared, which has the higher number for pKi? Record your answer as the label of the chosen record.
Solution: a

* * *

Molecular target: Tripeptidyl-peptidase 2 (Rattus norvegicus, UniProt Q64560)
pKi: −log10 of the molar value. Where a SMILES comes first, the peptide text is derived from it. [ ]: non-standard residue; d: D form. The star is where a group is joined. Cbz = O=C(OCc1ccccc1)*; Nva = CCC[CH](N)C(=O)O
quantity: pKi

Answered examples (5):
{"columns": ["compound", "tgt", "pKi"],
 "data": [
  ["CCCC(NC(=O)C(NC(=O)OCc1ccccc1)C(C)C)C(=O)O (stereo not drawn) (Cbz-Val-[Nva]-OH; configuration not given here)", "Tripeptidyl-peptidase 2 (Rattus norvegicus, UniProt Q64560)", "< 2.30"],
  ["CC(C)[C@H](N)C(=O)N[C@@H](C)C(=O)O (H-Val-Ala-OH)", "Tripeptidyl-peptidase 2 (Rattus norvegicus, UniProt Q64560)", 2.05],
  ["CCCC[C@H](NCc1ccccc1)C(=O)N[C@@H](CCCC)C(=O)NC", "Tripeptidyl-peptidase 2 (Rattus norvegicus, UniProt Q64560)", "< 2.52"],
  ["CCCCOC(=O)N[C@H](C(=O)N[C@@H](CCCC)C(=O)O)C(C)C", "Tripeptidyl-peptidase 2 (Rattus norvegicus, UniProt Q64560)", "< 2.30"],
  ["CCCCOC(=O)C(CCCC)NC(=O)C(NC(=O)OCc1ccccc1)C(C)C (stereo unspecified)", "Tripeptidyl-peptidase 2 (Rattus norvegicus, UniProt Q64560)", "< 2.52"]
]}

Continue with the next compound.
Problem: Specify pKi for N[C@@H](CC(=O)O)C(=O)N[C@@H](Cc1ccc(O)cc1)C(=O)O (H-Asp-Tyr-OH) , system Tripeptidyl-peptidase 2 (Rattus norvegicus, UniProt Q64560).
Solution: < 2.30
